Target: T1, Full-length human HER3 extracellular domain (ECD) (human, UniProt P21860 20-643)
T1 construct: also called human HER3 ECD; HER-3 ECD full length
T1 sequence (P21860 20-643): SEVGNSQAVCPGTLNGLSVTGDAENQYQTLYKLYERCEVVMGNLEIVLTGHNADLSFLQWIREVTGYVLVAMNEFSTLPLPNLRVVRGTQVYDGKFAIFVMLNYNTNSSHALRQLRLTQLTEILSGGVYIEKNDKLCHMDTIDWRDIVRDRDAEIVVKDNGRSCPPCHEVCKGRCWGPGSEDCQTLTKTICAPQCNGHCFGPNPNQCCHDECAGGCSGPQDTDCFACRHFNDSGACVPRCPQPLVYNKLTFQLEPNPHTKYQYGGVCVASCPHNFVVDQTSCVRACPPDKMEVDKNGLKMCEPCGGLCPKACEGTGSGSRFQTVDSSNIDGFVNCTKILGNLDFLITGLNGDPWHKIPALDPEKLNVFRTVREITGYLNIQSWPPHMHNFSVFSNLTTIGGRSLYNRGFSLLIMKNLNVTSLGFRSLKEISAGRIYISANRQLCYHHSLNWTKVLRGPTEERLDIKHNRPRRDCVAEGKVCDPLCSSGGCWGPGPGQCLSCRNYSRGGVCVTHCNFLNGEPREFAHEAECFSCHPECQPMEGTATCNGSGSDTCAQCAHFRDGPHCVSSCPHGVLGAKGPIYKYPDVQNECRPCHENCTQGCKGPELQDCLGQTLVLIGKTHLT
Assay: affinity summary table, method not given
Kd listing for selected binders.

query: Please report the recorded Kd for Chimeric 1D9 antibody (antibody, V domains shown, Murine VH fused to human IgG1 CH1-Fc, murine VL fused to human CK; also called Ch1D9; ch1D9) VH: QVQLQQPGAELVRPGTSVKLSCKASGYTFTSYWMHWVKQRPGQGLEWIGVIDPSDGYSHYNQKFKGKATLTVDTSSSTAYMQLSSLTSEDSAVYYCAGGLAGTLDYWGQGTTLTVSS VL: DVLMTQTPLSLPVSLGDQASISCRSSQSIVHSSGNTYLQWFLQKPGQSPKLLISKVSNRFSGVPDRFSGSGSGTDFTLRISRVEAEDLGLYYCFQGSHVPWTFGGGTKLEIK .
result: ~1 nM

query: Query: Kd; subject: Humanized 15D5 antibody (H4L1) (antibody, human IgG1, V domains shown, Human IgG1; also called h15D5) VH: QVQLVQSGAEVKKPGASVKVSCKASGYTFTDYNMNWVRQAPGQGLEWMGGINPNYGTTVYNQKFKGKVTLTVDTSISTAYMELSRLRSDDTAVYYCARMTTIVPFDYWGQGTTVTVSS VL: DIQMTQSPSSLSASVGDRVTITCRASQDISNYLNWYQQKPGKAPKLLIYYTSTLHSGVPSRFSGSGSGTDYTFTISSLQPEDIATYYCQQGYTLPWTFGGGTKVEIKR
result: 3.5 nM

query: Field request: Kd | item: Chimeric 15D5 antibody (antibody, human IgG1, V domains shown, To be rechecked; also called Ch15D5; ch15D5) VH: EFQLQQSGPELVKPGASVKISCKASGYSFTDYNMNWVKQNNGKSLEWIGGINPNYGTTVYNQKFKGKATLTVDQSSSTAYMQLVSLTSEDSAVYYCARMTTIVPFDYWGQGTTLTVSS VL: DIQMTQTTFSLSASLGDRVTISCRASQDISNYLNWYQQKPDGTVKLLIYYTSTLHSGVPSRFSGSGSGTDYFLTIRNLEEEDIATYFCQQGYTLPWTFGGGTKLDIK
result: ~1 nM
